Exercise: for every item that follows, state its recorded AUC(0-inf).
Assay: Pharmacokinetic study of the drug, oral administration to rats (plasma, cerebrospinal fluid, brain tissue)
Type: in vivo
Settings: plasma, SD rat, 10 mg/kg, single
Source text: Experimental Example 3 Pharmacokinetic Study of the Drug Oral Administration Solvent: 5% DMSO+10% Solutol HS15+85% Saline […] Before administration, checked the state of the administered preparation, ensured the homogeneity of the preparation by vortexing, stirring or oscillating, and calculated the theoretical volume of the administered drug for each SD rat in each group according to the following formula. […]
Write the value in ng·h/mL as a bare number.

[ask] Reported AUC(0-inf) for C=CC(=O)N1CCC(c2c(Nc3ccc(C(F)(F)F)cc3)ncc3ccccc23)CC1 [Compound T37] : what is it?
[reply] 18000

[ask] Reported AUC(0-inf) for C=CC(=O)N1CCC(c2cccnc2Nc2ccc(C(F)(F)F)cc2)CC1 [Compound T1] : what is it?
[reply] 5260

[ask] Reported AUC(0-inf) for C=CC(=O)N1CCC(c2cc(-c3cnn(C)c3)cnc2Nc2ccc(C(F)(F)F)cc2)CC1 [Compound T61] : what is it?
[reply] 13200

[ask] Reported AUC(0-inf) for C=CC(=O)N1CCC(c2cc(C)cnc2Nc2ccc(C(F)(F)F)cc2)CC1 [Compound T22] : what is it?
[reply] 3500

[ask] Reported AUC(0-inf) for C=CC(=O)N1CCC(c2nccnc2Nc2ccc(C(F)(F)F)cc2)CC1 [Compound T16] : what is it?
[reply] 17400

[ask] Reported AUC(0-inf) for C=CC(=O)N1CCC(c2cc(-c3cc[nH]n3)cnc2Nc2ccc(C(F)(F)F)cc2)CC1 [Compound T92] : what is it?
[reply] 4830

[ask] Reported AUC(0-inf) for C=CC(=O)N1CCC(c2ccc(Cl)nc2Nc2ccc(C(F)(F)F)cc2)CC1 [Compound T27] : what is it?
[reply] 19600

[ask] Reported AUC(0-inf) for C=CC(=O)N1CCC(c2cccnc2Oc2ccc(C(F)(F)F)cc2)CC1 [Compound T59] : what is it?
[reply] 3920

[ask] Reported AUC(0-inf) for C=CC(=O)N1CCC(c2nccnc2Oc2ccc(C(F)(F)F)cc2)CC1 [Compound T58] : what is it?
[reply] 7560

[ask] Reported AUC(0-inf) for C=CC(=O)N1CCC(c2cc(Cl)cnc2Oc2ccc(C(F)(F)F)cc2)CC1 [Compound T40] : what is it?
[reply] 18000

====

assay: Pharmacokinetic study of the drug, oral administration to rats (plasma, cerebrospinal fluid, brain tissue); assay type: in vivo; conditions: SD rat, 10 mg/kg, single
PARAMETER: HL—
Field: value (include unit after the number)

[ask] Reported HL— for `C=CC(=O)N1CCC(c2cc(C)cnc2Nc2ccc(C(F)(F)F)cc2)CC1` : what is it?
[reply] 2.64 h

[ask] Reported HL— for `C=CC(=O)N1CCC(c2nccnc2Oc2ccc(C(F)(F)F)cc2)CC1` : what is it?
[reply] 2.67 h

[ask] Reported HL— for `C=CC(=O)N1CCC(c2c(Nc3ccc(C(F)(F)F)cc3)ncc3ccccc23)CC1` : what is it?
[reply] 13.97 h

[ask] Reported HL— for `C=CC(=O)N1CCC(c2nccnc2Nc2ccc(C(F)(F)F)cc2)CC1` : what is it?
[reply] 2.07 h

[ask] Reported HL— for `C=CC(=O)N1CCC(c2cccnc2Nc2ccc(C(F)(F)F)cc2)CC1` : what is it?
[reply] 1.93 h

[ask] Reported HL— for `C=CC(=O)N1CCC(c2cc(-c3cc[nH]n3)cnc2Nc2ccc(C(F)(F)F)cc2)CC1` : what is it?
[reply] 1.59 h

[ask] Reported HL— for `C=CC(=O)N1CCC(c2cc(Cl)cnc2Oc2ccc(C(F)(F)F)cc2)CC1` : what is it?
[reply] 4.40 h

[ask] Reported HL— for `C=CC(=O)N1CCC(c2cc(-c3cnn(C)c3)cnc2Nc2ccc(C(F)(F)F)cc2)CC1` : what is it?
[reply] 2.95 h

[ask] Reported HL— for `C=CC(=O)N1CCC(c2cccnc2Oc2ccc(C(F)(F)F)cc2)CC1` : what is it?
[reply] 2.66 h

[ask] Reported HL— for `C=CC(=O)N1CCC(c2ccc(Cl)nc2Nc2ccc(C(F)(F)F)cc2)CC1` : what is it?
[reply] 3.03 h
